# Tested on: MDA-MB-453
# Protocol: XTT cell proliferation inhibition, MDA-MB-453
# Assay type: cell-based, humane
# Study Conditions: Homo sapiens, MDA-MB-453, MDA-MB-453, with pyruvate in the medium; read-out: IC50 (XTT) mit Pyrovat
Value Type: IC50
Enter the number, and then the unit.

# input Given the entry CCN(CC)CCONC(=O)c1c(C)[nH]c(/C=C2\C(=O)Nc3ccc(F)cc32)c1C [Beispiel 2.2] , report its measured IC50.
# output 8 µM

###

# Test system: BxPC-3
# Protocol: XTT cell proliferation inhibition, BxPC-3
# Type: cell-based, humane
# Study Conditions: Homo sapiens; BxPC-3, with pyruvate in the medium; read-out: IC50 (XTT) mit Pyrovat
Value Type: IC50
Enter the number, and then the unit.

# input Given the entry "CCN(CC)CCONC(=O)c1c(C)[nH]c(/C=C2\C(=O)Nc3ccc(F)cc32)c1C" , report its measured IC50.
# output 1300 nM

###

# Tested on: NK1
# Protocol: XTT cell proliferation inhibition, NK1
# Format: cell-based, Ratten
# Study Conditions: NK1, without pyruvate in the medium; read-out: IC50 ohne Pyrovat
Value Type: pIC50
Scale explanation: pIC50 corresponds to minus log10 of a concentration expressed in moles per litre.

molecule="CCN(CC)CCONC(=O)c1c(C)[nH]c(/C=C2\\C(=O)Nc3ccc(F)cc32)c1C [Beispiel 2.3]" value_type=pIC50 measured_number=5.40

For the next question, use this molecule.
# input Request - read-out pIC50 | tested on NK1 | molecule CCN(CC)CCONC(=O)c1c(C)[nH]c(/C=C2\C(=O)Nc3ccc(F)cc32)c1C [Beispiel 2.1]
# output 5.70

###

# System: MCF-7
# Protocol: XTT cell proliferation inhibition, MCF-7
# Type: cell-based, humane
# Study Conditions: MCF-7, with pyruvate in the medium; read-out: IC50 (XTT) mit Pyrovat
Value Type: IC50 (µM)
Write the answer as a number in µM, unit excluded.

# input Given the entry "CCN(CC)CCONC(=O)c1c(C)[nH]c(/C=C2\C(=O)Nc3ccc(F)cc32)c1C" , report its measured IC50.
# output 9

###

# System: MDA-MB-453
# Protocol: XTT cell proliferation inhibition, MDA-MB-453
# Type: cell-based, humane
# Study Conditions: Homo sapiens; MDA-MB-453, without pyruvate in the medium; read-out: IC50 ohne Pyrovat
# Source text: Die Substanzen der Beispiele 2.1 bis 2.3 wurden an verschiedenen Zelllinien in An- und Abwesenheit von Pyruvat im Nährmedium auf ihre proliferationshemmende Wirkung getestet. Die Substanzen wurden jeweils in DMSO gelöst. Anschließend wurde der Wirkstoff in acht Konzentrationsintervallen getestet. Der Berechnung der IC50-Werte lagen in jeder Konzentration acht Einzelwertbestimmungen zugrunde. […]
Value Type: pIC50
Scale explanation: pIC50 corresponds to minus log10 of a concentration expressed in moles per litre.

# input Given the entry "CCN(CC)CCONC(=O)c1c(C)[nH]c(/C=C2\C(=O)Nc3ccc(F)cc32)c1C" , report its measured pIC50.
# output 5.15

###

# Test system: 25 verschiedenen Tumormodellen
# Protocol: Colony assay in soft agar, 25 tumour models
# Assay type: cell-based, menschlichen
# Study Conditions: mean over all 25 tumour models; read-out: mittlere IC50-Wert
Value Type: IC50
Enter the number, and then the unit.

# input Given the entry CCN(CC)CCONC(=O)c1c(C)[nH]c(/C=C2\C(=O)Nc3ccc(F)cc32)c1C [Beispiel 2.1] , report its measured IC50.
# output 15 µM

All figures here come from patent EP2029580B1.
